Provenance of the data: patent US9409952B2

- TEST_NAME: PAMPA (parallel artificial membrane permeability assay)
- Type: in vitro ADME
- DETAILS: PAMPA, pH 6.5
Positions of bridges follow the written chain, without caps; N, C: chain ends. Non-standard residues stand in square brackets, D forms with d. Residues, ends and D or L forms follow the SMILES beside them. *: point of attachment. NMeF = CN[C@@H](Cc1ccccc1)C(=O)O; NMeI = CC[C@H](C)[C@H](NC)C(=O)O; NMeL = CN[C@@H](CC(C)C)C(=O)O; NMeV = CN[C@H](C(=O)O)C(C)C; NMeA = CN[C@@H](C)C(=O)O; Piperidide = C1CCN(*)CC1; Sar = CNCC(=O)O; tBu = CC(C)(C)*
We begin with a simple list: items and their reported Papp at 18 hours, 50 µM.
The reply should contain only the number, in ×10⁻⁶ cm/s.

{"MOLECULE": "CC[C@H](C)[C@H]1C(=O)N[C@H](C(=O)N2CCCCC2)CC(=O)N[C@H](C(C)C)C(=O)N[C@@H]([C@@H](C)O)C(=O)N(C)CC(=O)N[C@@H](CC(C)C)C(=O)N2CCC[C@H]2C(=O)N(C)[C@@H](C(C)C)C(=O)N[C@@H](Cc2ccccc2)C(=O)N(C)[C@@H](Cc2ccccc2)C(=O)N(C)[C@@H](CC(C)C)C(=O)N[C@@H](C)C(=O)N1C [DP-56] ([dV]T[Sar]LP[NMeV]F[NMeF][NMeL]A[NMeI]D-Piperidide; lactam N-12)", "RESULT_VALUE": 30}
{"MOLECULE": "CC[C@H](C)[C@H]1C(=O)N[C@H](C(=O)N2CCCCC2)CC(=O)N[C@@H](C)C(=O)N(C)[C@@H](C)C(=O)N(C)[C@@H](Cc2ccccc2)C(=O)N(C)[C@@H](CC(C)C)C(=O)N[C@@H]([C@@H](C)O)C(=O)N(C)CC(=O)N(C)[C@@H](CC(C)C)C(=O)N[C@@H](COC(C)(C)C)C(=O)N1C [DP-36] (A[NMeA][NMeF][NMeL]T[Sar][NMeL]S(tBu)[NMeI]D-Piperidide; lactam N-10)", "RESULT_VALUE": 27}
{"MOLECULE": "CC[C@H](C)[C@H]1C(=O)N[C@@H]([C@@H](C)O)C(=O)N(C)CC(=O)N(C)[C@@H](CC(C)C)C(=O)N[C@H](C(=O)N2CCCCC2)CC(=O)N(C)[C@@H](C)C(=O)N[C@@H](CC(C)C)C(=O)N(C)[C@@H](CC(C)C)C(=O)N(C)[C@@H](Cc2ccccc2)C(=O)N[C@@H](C)C(=O)N(C)[C@@H](Cc2ccccc2)C(=O)N1C [DP-101] ([NMeA]L[NMeL][NMeF]A[NMeF][NMeI]T[Sar][NMeL]D-Piperidide; lactam N-11)", "RESULT_VALUE": 56}
{"MOLECULE": "CC[C@H](C)[C@H]1C(=O)N[C@@H](C)C(=O)N(C)[C@@H](CC(C)C)C(=O)N(C)[C@@H](Cc2ccccc2)C(=O)N[C@@H]([C@@H](C)O)C(=O)N(C)[C@@H](C)C(=O)N(C)[C@@H](CC(C)C)C(=O)N(C)[C@@H](Cc2ccccc2)C(=O)N[C@H](C(=O)N(C)[C@@H](Cc2ccccc2)C(=O)N[C@@H](C)C(=O)N2CCCCC2)CC(=O)N(C)CC(=O)N(C)[C@@H](CC(C)C)C(=O)N1C [DP-284] ([Sar][NMeL][NMeI]A[NMeL][NMeF]T[NMeA][NMeL][NMeF]D[NMeF]A-Piperidide; lactam N-11)", "RESULT_VALUE": 0.21}

Continue with the next molecule.
# input Given CC[C@H](C)[C@@H]1NC(=O)[C@H](Cc2ccccc2)N(C)C(=O)[C@H]([C@@H](C)O)NC(=O)[C@H](C)NC(=O)C[C@@H](C(=O)N(C)[C@@H](Cc2ccccc2)C(=O)N(C)[C@@H](Cc2ccccc2)C(=O)N[C@@H](C)C(=O)N2CCCCC2)NC(=O)[C@H](CC(C)C)N(C)C(=O)[C@H](CC(C)C)N(C)C(=O)[C@H](Cc2ccccc2)N(C)C(=O)[C@H](CC(C)C)N(C)C(=O)[C@H](C)N(C)C1=O [DP-286] (AT[NMeF]I[NMeA][NMeL][NMeF][NMeL][NMeL]D[NMeF][NMeF]A-Piperidide; lactam N-10) , respond with its Papp at 18 hours, 50 µM.
# output 0.24

----------
- TEST_NAME: PAMPA (parallel artificial membrane permeability assay)
- Format: in vitro ADME
- DETAILS: PAMPA, pH 6.5
Starred links: 1 amine or outer side, 2 acyl side, 3 side chain; linkers in the order of their positions; H or OH if unused. Positions of bridges follow the written chain, without caps; N, C: chain ends. Non-standard residues stand in square brackets, D forms with d. Residues, ends and D or L forms follow the SMILES beside them. *: point of attachment. Phe(4-CF3) = N[C@@H](Cc1ccc(C(F)(F)F)cc1)C(=O)O; NMePhe(3-Cl) = CN[C@@H](Cc1cccc(Cl)c1)C(=O)O; NMeF = CN[C@@H](Cc1ccccc1)C(=O)O; NMeGABA = CN(CCCC(=O)[*:2])[*:1]; NMeI = CC[C@H](C)[C@H](NC)C(=O)O; NMeβAla = CN(CCC(=O)[*:2])[*:1]; NMeL = CN[C@@H](CC(C)C)C(=O)O; NMeV = CN[C@H](C(=O)O)C(C)C; NMeA = CN[C@@H](C)C(=O)O; Piperidide = C1CCN(*)CC1; dNMeA = CN[C@H](C)C(=O)O; β3hA = C[C@H](N)CC(=O)O; Sar = CNCC(=O)O
REPORTED_PROPERTY: Papp at 18 hours, 50 µM (×10⁻⁶ cm/s)
# output: bare number, implied unit ×10⁻⁶ cm/s

Consider the reported Papp at 18 hours, 50 µM for these molecules:
{"MOLECULE": "CC[C@H](C)[C@@H]1NC(=O)[C@H](CC(C)C)N(C)C(=O)[C@H](C)NC(=O)CCCN(C)C(=O)C[C@@H](C(=O)N2CCCCC2)NC(=O)[C@H]([C@@H](C)O)NC(=O)[C@H](Cc2ccccc2)NC(=O)[C@H](C(C)C)N(C)C(=O)[C@H](CC(C)C)N(C)C(=O)[C@H](Cc2ccccc2)N(C)C1=O [DP-121] ([NMeGABA]A[NMeL]I[NMeF][NMeL][NMeV]FTD-Piperidide; lactam N-10)", "RESULT_VALUE": 41}
{"MOLECULE": "CC(C)C[C@@H]1NC(=O)[C@H](C)N(C)C(=O)[C@H](C(C)C)N(C)C(=O)CN(C)C(=O)[C@H](Cc2ccccc2)NC(=O)[C@H](C(C)C)N(C)C(=O)[C@H](C)N(C)C(=O)[C@H]([C@@H](C)O)NC(=O)[C@H](Cc2ccccc2)N(C)C(=O)[C@H](C)NC(=O)CCN(C)C(=O)C[C@@H](C(=O)N2CCCCC2)NC1=O [DP-408] ([NMeβAla]A[NMeF]T[NMeA][NMeV]F[Sar][NMeV][NMeA]LD-Piperidide; lactam N-12)", "RESULT_VALUE": 1.9}
{"MOLECULE": "CC(C)C[C@@H]1NC(=O)[C@H](CC(C)C)N(C)C(=O)CNC(=O)[C@H](Cc2ccccc2)NC(=O)[C@H](C(C)C)N(C)C(=O)[C@H](Cc2ccccc2)NC(=O)[C@H](C)N(C)C(=O)CCN(C)C(=O)C[C@@H](C(=O)N(C)[C@@H](Cc2ccccc2)C(=O)N[C@@H](C)C(=O)N2CCCCC2)NC(=O)[C@H](C)N(C)C(=O)[C@H](CC(C)C)N(C)C1=O [DP-282] ([NMeβAla][NMeA]F[NMeV]FG[NMeL]L[NMeL][NMeA]D[NMeF]A-Piperidide; lactam N-11)", "RESULT_VALUE": 28}
{"MOLECULE": "CC[C@H](C)[C@H]1C(=O)NCC(=O)N(C)[C@@H](C)C(=O)N[C@@H](CC(C)C)C(=O)N[C@@H](C)CC(=O)N(C)[C@@H](C)C(=O)N[C@@H](CC(C)C)C(=O)N(C)[C@@H](C)C(=O)N[C@@H]([C@@H](C)O)C(=O)N2CCC[C@H]2C(=O)N(C)[C@@H](Cc2cccc(Cl)c2)C(=O)N[C@@H](Cc2ccc(C(F)(F)F)cc2)C(=O)N1C [DP-810] (cyclo(G[NMeA]L[β3hA][NMeA]L[NMeA]TP[NMePhe(3-Cl)][Phe(4-CF3)][NMeI]))", "RESULT_VALUE": 14}

# input For the molecule CC[C@H](C)[C@H]1C(=O)NCC(=O)N(C)[C@@H](Cc2ccccc2)C(=O)N(C)[C@@H](Cc2ccccc2)C(=O)N(C)[C@@H](CC(C)C)C(=O)N(C)[C@@H](CC(C)C)C(=O)N[C@H](C(=O)N2CCCCC2)CC(=O)N(C)[C@H](C)C(=O)N[C@@H]([C@@H](C)O)C(=O)N(C)[C@@H](C)C(=O)N1C [DP-74] ([dNMeA]T[NMeA][NMeI]G[NMeF][NMeF][NMeL][NMeL]D-Piperidide; lactam N-10) , report Papp at 18 hours, 50 µM.
# output 29
